test: log P by HPLC on reversed-phase column (EEC directive 79/831 Annex V.A8); type: physicochemical; details: HPLC on reversed-phase column
# log p a) values compiled below
Form field (numeric): enter value without unit.

Solved cases below.
{"columns": ["molecule", "testValue"],
 "data": [
  ["Cc1ccc[n+]2c(C(=O)COCC(F)(F)F)c([O-])n(Cc3cnc(Cl)s3)c12 [Example I-1-297]", 2.34],
  ["O=C(Nc1c(Cl)cccc1Cl)c1c([O-])n(Cc2ccc(Cl)nc2)c2cccc[n+]12 [Example I-1-314]", 2.59],
  ["Cc1ccc[n+]2c(C(=O)Nc3ccc(F)cc3)c([O-])n(Cc3ccc(Cl)nc3)c12 [Example I-1-219]", 2.9],
  ["CCNC(=O)c1c([O-])n(Cc2cnc(C)cn2)c2cccc[n+]12 [Example I-1-244]", 1.07],
  ["COc1ccccc1NC(=O)c1c([O-])n(Cc2ccc(Cl)nc2)c2cccc[n+]12 [Example I-1-326]", 2.55],
  ["CC(c1cnc(Cl)s1)n1c([O-])c(C(=O)NC2CC2)[n+]2ccccc12 (centres unmarked) [Example I-1-254]", 1.94],
  ["Cc1ccc[n+]2c(C(=O)Cn3cccn3)c([O-])n(Cc3cnc(Cl)s3)c12 [Example I-1-251]", 1.69]
]}

Let us move to another entry and its log p a).
log p a) reading for O=C(Nc1ncccc1F)c1c([O-])n(Cc2cnc(Cl)s2)c2cccc[n+]12 [Example I-1-284] : 1.68
